The values you see were collected from ChEMBL document CHEMBL1143198.

tested on: monoamine oxidase B; assay: Stability in presence of monoamine oxidase B after 30 mins; type: ADME; details: read-out: Stability
metric: remaining at 0.5 h (%)
Give just the number in %; leave the unit off.

Return reported remaining at 0.5 h; argument: `NCc1ccc2c(c1)C1(CCN(C(=O)c3ccc(C#Cc4ccccc4)o3)CC1)CO2`
95
